# PBM binding z-score per record follows
Test system: RARa homodimer (NR concentration 270 nM)
assayDetails: PBM binding z-score (relative to random genomic background probes); higher = stronger binding; sequences stand for … in GC…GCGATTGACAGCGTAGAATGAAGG
# output: bare number, no unit

macromoleculeSequence: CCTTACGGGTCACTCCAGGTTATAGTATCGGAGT
valueReported: 0.304
--
macromoleculeSequence: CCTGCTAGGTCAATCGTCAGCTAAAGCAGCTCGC
valueReported: -0.666

From here, focus on the item given below.
Ask | Param item = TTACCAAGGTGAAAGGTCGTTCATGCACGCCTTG ; retrieve measured PBM binding z-score.
Reply | 0.139

###

Tested on: PPARg homodimer (NR concentration 180 nM)
assayDetails: PBM binding z-score (relative to random genomic background probes); higher = stronger binding; sequences stand for … in GC…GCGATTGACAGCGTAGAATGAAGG
# PBM binding z-score per record follows
# output: bare number, no unit

Ask | Param item = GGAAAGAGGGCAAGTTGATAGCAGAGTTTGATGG ; retrieve measured PBM binding z-score.
Reply | 1.67

Ask | Param item = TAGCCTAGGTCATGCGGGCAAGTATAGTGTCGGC ; retrieve measured PBM binding z-score.
Reply | 1.39

Ask | Param item = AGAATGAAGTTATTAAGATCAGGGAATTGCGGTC ; retrieve measured PBM binding z-score.
Reply | 0.538

Ask | Param item = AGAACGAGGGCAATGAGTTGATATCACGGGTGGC ; retrieve measured PBM binding z-score.
Reply | 0.0848

###

Test system: LXRa homodimer (NR concentration 270 nM)
assayDetails: PBM binding z-score (relative to random genomic background probes); higher = stronger binding; sequences stand for … in GC…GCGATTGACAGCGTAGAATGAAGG
recordedMetric: PBM binding z-score
# output: bare number, no unit

Record excerpt, results attached:
macromoleculeSequence: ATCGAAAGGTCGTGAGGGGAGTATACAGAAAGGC
system: LXRa homodimer (NR concentration 270 nM)
valueReported: 0.475
--
macromoleculeSequence: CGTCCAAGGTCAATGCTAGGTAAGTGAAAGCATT
system: LXRa homodimer (NR concentration 270 nM)
valueReported: 0.161
--
macromoleculeSequence: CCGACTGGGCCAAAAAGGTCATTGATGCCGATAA
system: LXRa homodimer (NR concentration 270 nM)
valueReported: 2.8
--
macromoleculeSequence: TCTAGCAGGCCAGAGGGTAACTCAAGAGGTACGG
system: LXRa homodimer (NR concentration 270 nM)
valueReported: -0.636

Ask | Param item = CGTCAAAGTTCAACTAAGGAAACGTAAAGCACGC ; retrieve measured PBM binding z-score.
Reply | 3.78

Ask | Param item = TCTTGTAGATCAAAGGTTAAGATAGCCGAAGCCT ; retrieve measured PBM binding z-score.
Reply | 0.243

Ask | Param item = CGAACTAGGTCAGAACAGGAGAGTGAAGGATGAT ; retrieve measured PBM binding z-score.
Reply | -0.174

Ask | Param item = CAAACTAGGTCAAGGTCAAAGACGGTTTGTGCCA ; retrieve measured PBM binding z-score.
Reply | 3.28

Ask | Param item = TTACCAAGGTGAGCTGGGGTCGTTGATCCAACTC ; retrieve measured PBM binding z-score.
Reply | -0.542

Ask | Param item = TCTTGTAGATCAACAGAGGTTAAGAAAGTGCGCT ; retrieve measured PBM binding z-score.
Reply | 0.564

Ask | Param item = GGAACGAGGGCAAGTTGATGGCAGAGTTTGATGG ; retrieve measured PBM binding z-score.
Reply | -0.0865

Ask | Param item = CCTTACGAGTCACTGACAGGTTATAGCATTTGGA ; retrieve measured PBM binding z-score.
Reply | 0.907

Every entry's value here was drawn from the supplement of paper PMC6555819.
